Target: mTOR (Homo sapiens, UniProt P42345)
Construct: FLAG; made in house
Sequence (P42345 1362-2549): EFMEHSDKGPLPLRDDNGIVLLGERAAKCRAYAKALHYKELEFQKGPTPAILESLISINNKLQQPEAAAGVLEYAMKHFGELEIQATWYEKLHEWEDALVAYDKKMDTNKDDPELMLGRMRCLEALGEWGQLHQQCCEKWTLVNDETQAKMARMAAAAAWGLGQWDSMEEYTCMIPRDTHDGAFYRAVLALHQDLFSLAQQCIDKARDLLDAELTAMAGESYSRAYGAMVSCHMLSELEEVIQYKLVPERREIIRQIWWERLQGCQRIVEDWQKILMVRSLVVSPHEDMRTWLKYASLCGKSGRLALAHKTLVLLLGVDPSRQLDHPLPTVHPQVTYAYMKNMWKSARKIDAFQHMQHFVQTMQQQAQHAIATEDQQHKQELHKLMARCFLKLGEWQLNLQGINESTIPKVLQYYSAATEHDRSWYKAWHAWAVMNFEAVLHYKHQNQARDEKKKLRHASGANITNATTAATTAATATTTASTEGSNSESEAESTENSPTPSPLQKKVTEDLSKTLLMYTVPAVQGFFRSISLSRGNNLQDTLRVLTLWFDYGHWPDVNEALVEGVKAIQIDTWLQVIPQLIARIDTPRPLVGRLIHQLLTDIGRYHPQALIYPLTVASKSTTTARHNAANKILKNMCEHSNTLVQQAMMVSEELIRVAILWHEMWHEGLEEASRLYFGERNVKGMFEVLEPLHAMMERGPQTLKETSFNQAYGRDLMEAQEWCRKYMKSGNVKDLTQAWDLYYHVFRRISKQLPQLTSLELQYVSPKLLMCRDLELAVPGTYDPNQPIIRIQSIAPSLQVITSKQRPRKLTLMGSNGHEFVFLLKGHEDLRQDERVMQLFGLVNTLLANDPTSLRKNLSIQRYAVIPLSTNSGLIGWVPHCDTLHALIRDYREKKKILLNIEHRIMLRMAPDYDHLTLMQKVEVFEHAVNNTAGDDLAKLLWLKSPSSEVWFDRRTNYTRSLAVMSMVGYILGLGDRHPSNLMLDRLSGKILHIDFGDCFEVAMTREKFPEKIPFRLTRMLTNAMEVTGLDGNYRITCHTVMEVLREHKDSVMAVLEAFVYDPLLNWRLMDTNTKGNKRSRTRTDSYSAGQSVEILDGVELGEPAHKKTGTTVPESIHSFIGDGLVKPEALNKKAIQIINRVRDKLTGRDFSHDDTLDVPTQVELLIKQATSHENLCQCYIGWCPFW
Experiment: In Vitro mTOR Kinase Assay (Echo), Test (a)(ii)
Assay type: biochemical
Conditions: table of enzyme assay Test (a)(ii); read-out: Test (a)(ii) IC50
Excerpt: (a)(ii) In Vitro mTOR Kinase Assay (Echo) The assay used AlphaScreen technology (Gray et al., Analytical Biochemistry, 2003, 313: 234-245) to determine the ability of test compounds to inhibit phosphorylation by recombinant mTOR. A C-terminal truncation of mTOR encompassing amino acid residues 1362 to 2549 of mTOR (EMBL Accession No. L34075) was stably expressed as a FLAG-tagged fusion in HEK293 cells as described by Vilella-Bach et al., Journal of Biochemistry, 1999, 274, 4266-4272. […]
As shown below, each of these compounds has a reported pIC50 value.
// pIC50: -log10(molar conc.)

Check out these entries, answers already filled in.
compound	experimental-value
O=C(NCCO)Nc1ccc(-c2nc(N3CCOCC3)cc(C3(S(=O)(=O)C4CC4)CC3)n2)cc1 [Example 13d]	8.45
CCNC(=O)Nc1ccc(-c2nc(N3CCOC[C@@H]3C)cc(C3(S(=O)(=O)C(C)(C)C)CC3)n2)cc1 [Example 18e]	9.18

// lookup pIC50 for Cc1nn(C)cc1S(=O)(=O)C1(c2cc(N3CCOC[C@@H]3C)nc(-c3ccc(NC(=O)Nc4cnn(C)c4)cc3)n2)CC1 [Example 55f]
7.81
